The values you see were collected from paper PMC12775434.

Assign Emax to each entry below.
target: GPR139 (Homo sapiens); assay: Ca2+ mobilization assay, agonist mode, stable GPR139-CHOk1 cell line; assay type: cell-based; settings: Supplementary Table 2; normalized to Lundbeck Cmp 1a; mean ± SEM; read-out: Emax (%) Ca2+
Numbers only, in %.

What Emax value was documented for this compound, Cc1cccc(-c2nc(CC(=O)NC(C)c3ccccc3)no2)c1 (centres unmarked) ? 109

What Emax value was documented for this compound, Cc1cc(-c2nc(CC(=O)NC(C)c3ccccc3)no2)sc1C (centres unmarked) ? 94

What Emax value was documented for this compound, Cc1ncc(-c2nc(CC(=O)NC(C)c3ccccc3)no2)o1 (centres unmarked) ? 97

Please look at the items below and tell me Emax for each one, in order.
1. CCc1nc(-c2nc(CC(=O)NC(C)c3ccccc3)no2)co1 (centres unmarked)
2. CC(=O)c1ccc(-c2nc(CC(=O)NC(C)c3ccccc3)no2)s1 (centres unmarked)

[78, 66]

----------
Target: GPR139 (G12 activation) (Homo sapiens, UniProt Q6DWJ6)
Construct: expressed in transfected cells; host or cells: HEK293A (transient, Lipofectamine 2000)
Sequence (Q6DWJ6 1-353): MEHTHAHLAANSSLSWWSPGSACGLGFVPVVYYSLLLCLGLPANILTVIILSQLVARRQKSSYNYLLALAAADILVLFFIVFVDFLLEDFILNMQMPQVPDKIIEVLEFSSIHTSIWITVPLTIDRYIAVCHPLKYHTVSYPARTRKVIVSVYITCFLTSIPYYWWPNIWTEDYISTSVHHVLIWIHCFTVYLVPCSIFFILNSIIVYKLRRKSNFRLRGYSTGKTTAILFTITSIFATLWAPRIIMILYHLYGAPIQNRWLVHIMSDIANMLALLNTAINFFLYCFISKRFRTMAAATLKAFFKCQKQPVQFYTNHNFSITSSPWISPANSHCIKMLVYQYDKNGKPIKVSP
Assay: BRET G protein activation (dissociation) assay, G12, HEK293A
Assay type: cell-based
Details: HEK293-A; normalized to JNJ-63533054 (JNJ(S))
metric: Emax (%)
One number for each entry, in %.

Please look at the items below and tell me Emax for each one, in order.
1. Cc1cscc1-c1nc(CC(=O)N[C@H](C)c2ccccc2)no1 [1.1(R)]
2. C[C@@H](NC(=O)CNC(=O)c1cccc(Cl)c1)c1ccccc1 [JNJ(R), reference compound]
3. Cc1cscc1-c1nc(CC(=O)N[C@@H](C)c2ccccc2)no1 [1.1(S)]
4. CC(NC(=O)CNC(=O)c1cccc(Cl)c1)c1ccccc1 (stereo not shown) [JNJ-63533054, reference compound]

[51, 48, 54, 57]

----------
biological target: UniProt:Q6DWJ6; assay: Inositol monophosphate (IP1) accumulation assay, GPR139-CHOk1; type: cell-based; conditions: Supplementary Table 2; normalized to Lundbeck Cmp 1a; read-out: Emax (%) IP1
metric: Emax (%)
Numbers only, in %.

Below are worked cases with known answers.
What Emax value was documented for this molecule, COC(=O)c1cc(NC(=O)NC(C)c2cccc(F)c2F)ccc1C (stereo not shown) [Compound 2] ? 85

What Emax value was documented for this molecule, Cc1cc(-c2nc(CC(=O)NC(C)c3ccccc3)no2)n(C)n1 (stereo not shown) [Compound 1.16] ? 118

What Emax value was documented for this molecule, Cc1nocc1-c1nc(CC(=O)NC(C)c2ccccc2)no1 (stereo not shown) [Compound 1.5] ? 102

What Emax value was documented for this molecule, COc1ccccc1-c1nc(CC(=O)NC(C)c2ccccc2)no1 (stereo not shown) [Compound 1.2] ? 100

What Emax value was documented for this molecule, Cc1cc(-c2nc(CC(=O)NC(C)c3ccccc3)no2)sc1C (stereo not shown) [Compound 1] ? 114

Please look at the items below and tell me Emax for each one, in order.
1. COc1cc(-c2nc(CC(=O)NC(C)c3ccccc3)no2)ccn1 (stereo not shown) [Compound 1.7]
2. Cc1cscc1-c1nc(CC(=O)NC(C)c2ccccc2)no1 (stereo not shown) [Compound 1.1]

1. 117
2. 91
